- experiment: NCI Yeast Anticancer Drug Screen. Data for the rad18 strain (AID 177)
- experimental.conditions: S. cerevisiae rad18 mutant growth inhibition; at 33.0 µM; hits give high values
About 79,000 compounds went through this panel and 15% of them were active in at least one assay; those are over-represented in the sample as a whole.
Reported growth inhibition values for the following compounds.
Write the number in % without appending the unit.

Would you please look over these solved cases?
- compound: "CC(C)(CN1CCCCC1)C(=O)CC(SCCS(=O)(=O)O)c1ccccc1 (centres undefined)"
  recorded.metric: "growth inhibition"
  val: 26
- compound: "N#CCC(=O)N/N=C(\\c1ccccc1)C(c1ccccc1)C1(O)C(=O)Nc2c(Cl)ccc(Cl)c21 (centres undefined)"
  recorded.metric: "growth inhibition"
  val: 24
- compound: "CC1=CN2C(c3ccccc3)=NON(c3ccc(C)cn3)C2C=C1 (centres undefined)"
  recorded.metric: "growth inhibition"
  val: 1
- compound: "O=C(c1ccccc1)[C@H]1Nc2ccc(Cl)cc2[C@H]2OCCC[C@@H]12"
  recorded.metric: "growth inhibition"
  val: 31
- compound: "Cn1c(-c2ccc(/C=N\\N3CCN(/N=C/c4ccc(-c5c[n+]6ccsc6n5C)cc4)CC3)cc2)c[n+]2ccsc12"
  recorded.metric: "growth inhibition"
  val: 62

Recorded result, NC(=O)NC1C(c2ccccc2)=C1c1ccccc1 , growth inhibition: 38

Recorded result, CCOP(=O)(OCC)/C(C#N)=C\c1cccc2ccccc12 , growth inhibition: 95

Recorded result, COc1ccc(C(=O)/C=C\c2ccc(Cl)c(Cl)c2)cc1 , growth inhibition: -6

Recorded result, COc1ccc2nc(CCc3ccccc3)ccc2c1 , growth inhibition: -19

Recorded result, COc1ccccc1NC(=O)c1ccc(Cl)cc1 , growth inhibition: 3

Recorded result, CC1=CC(C)(C)SC(SSSC2=NC(C)=CC(C)(C)S2)=N1 , growth inhibition: 23

Recorded result, CC(=O)CC(c1ccccc1)c1c(O)c2ccccc2oc1=O (centres undefined) , growth inhibition: 27

----------
- experiment: NCI Yeast Anticancer Drug Screen. Data for the CLN2oe strain (AID 163);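 also: 0% = growth of vehicle-only control cultures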
- experimental.conditions: S. cerevisiae CLN2oe strain, at 100.0 µM, hits give high values
The panel holds about 79,000 compounds, 15% with a hit somewhere; the sample as a whole holds those more often.
recorded.metric: growth inhibition (%)
Write the number in % without appending the unit.

- molecule: "O=C(C#Cc1ccccc1)/C=C/c1ccccc1"
  growth inhibition, %: 93
- molecule: "COc1cc(C2C3=C(COC3=O)Oc3cc4c(cc32)OCO4)cc(OC)c1O (stereo not given)"
  growth inhibition, %: 21
- molecule: "Oc1ccc(C2(c3ccc(O)cc3)CCCC2)cc1"
  growth inhibition, %: 98
- molecule: "Cc1cc(O)c(C(C)C)cc1SC#N"
  growth inhibition, %: 98
- molecule: "CCCCCCCC/C=C\\CCCCCCCCN"
  growth inhibition, %: 97

Recorded result, CCCCS(=O)(=O)Nc1ccc(Nc2c3ccccc3nc3ccccc23)c(OC)c1 , growth inhibition: 91

Recorded result, CCCCCc1c(CCCC)c(=O)[nH]c2cc(CNCC(OC)OC)ccc12 , growth inhibition: 94

----------
Reported growth inhibition values for the following compounds.
- experiment: NCI Yeast Anticancer Drug Screen. Data for the rad14 strain (AID 159);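 also: 0% = growth of vehicle-treated control cultures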
- experimental.conditions: S. cerevisiae rad14 strain growth inhibition; at 100.0 µM; hits give high values
- Method: Growth inhibition of yeast strains with defined genetic alterations is measured as a screen for potential anti-cancer activity. Selected strains with alterations in DNA damage repair or cell cycle control were exposed to compounds and growth inhibition was measured relative to vehicle treated controls. The strain used in this assay is rad14
The panel holds about 79,000 compounds, 15% with a hit somewhere; the sample as a whole holds those more often.
Write the number in % without appending the unit.

- compound: "Cc1c(C(=O)/C=C/c2ccccc2[N+](=O)[O-])[n+](=O)c2ccccc2n1[O-]"
  uom: "%"
  growth inhibition: 76
- compound: "CCCCCCC1OCC(O)C(OCCCC)O1 (configuration not stated)"
  uom: "%"
  growth inhibition: 0
- compound: "O=[N+]([O-])[O][Sn]([O][Sn]([O][N+](=O)[O-])([c]1ccccc1)[c]1ccccc1)([c]1ccccc1)[c]1ccccc1"
  uom: "%"
  growth inhibition: 94
- compound: "Cc1c(Cl)c(C)c(Cl)c(O)c1Cl"
  uom: "%"
  growth inhibition: 99
- compound: "O=NC1c2cccc3cccc(c23)C1N=O (configuration not stated)"
  uom: "%"
  growth inhibition: 97
- compound: "C[C@H](CCC1=NC(C)(C)CO1)C1CCC2[C@@H]3C(O)C[C@@H]4CC(O)CC[C@]4(C)C3CC[C@@]21C (some centres not stated)"
  uom: "%"
  growth inhibition: 100
- compound: "CNC(=O)OCc1c2ccncc2c(C)c2c1[nH]c1ccccc12"
  uom: "%"
  growth inhibition: 89
- compound: "Cc1cccc2c(Cl)c3cccc(C)c3nc12"
  uom: "%"
  growth inhibition: 12

Now let's try a different one.
Recorded result, CC(C)(Br)C(=O)/C=C/c1ccccc1 , growth inhibition: 97

----------
- experiment: NCI Yeast Anticancer Drug Screen. Data for the rad50 strain (AID 155);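 also: 0% = growth of vehicle-only cultures of the same strain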
- experimental.conditions: S. cerevisiae rad50 strain growth inhibition; at 50.0 µM; hits give high values
The panel holds about 79,000 compounds, 15% with a hit somewhere; the sample as a whole holds those more often.
recorded.metric: growth inhibition (%)
Write the number in % without appending the unit.

- compound: "CC1=C(C)C(=O)C2=C(OCCO2)C1=O"
  growth inhibition [%]: 1
- compound: "CN(C)CCCn1c2c3ccccc3ccc2c2oc(=O)c3ccccc3c21"
  growth inhibition [%]: 99
- compound: "C1=CCN([B-](c2ccccc2)[C+]2CCCCC2)C=C1"
  growth inhibition [%]: 98.9
- compound: "O=C(CN(c1ccccc1)c1ccccc1)n1nnc2ccccc21"
  growth inhibition [%]: 74.5

Recorded result, CC(=O)O[C@H]1CC[C@@]2(C)C(=CC[C@@H]3C2CC[C@]2(C)C(=O)NC(=O)CC32)C1 (stereo partly specified) , growth inhibition: 12.4

Recorded result, O=C1C(=C2CCCC2)CCC1CN1CCCCC1 (stereo unspecified) , growth inhibition: 76.3

----------
- experiment: NCI Yeast Anticancer Drug Screen. Data for the mlh1 strain (AID 171);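 also: 0% = growth of vehicle-treated control cultures of the same strain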
- experimental.conditions: S. cerevisiae mlh1 strain growth inhibition; at 3.7 µM; hits give high values
Compounds without any hit were thinned out: in the full panel of roughly 79,000, 15% have a hit.
recorded.metric: growth inhibition (%)
Write the number in % without appending the unit.

- molecule: "CN(C)N=Nc1ccc(N(C)C)cc1"
  growth inhibition / %: -3

Recorded result, S=C1C(=Nc2ccccc2)N(c2ccccc2)/C(=N\c2ccccn2)N1c1ccccc1 , growth inhibition: -2

Recorded result, O=C(NCCCCN1CC2CCCC2C1)C(C1CCCCC1)C1CCCCC1 (configuration not stated) , growth inhibition: 5

Recorded result, N#CSCC1COc2ccccc2O1 (configuration not stated) , growth inhibition: -37

Recorded result, O=C1c2cccc3cccc(c23)C(=O)N1CCNCCN1C(=O)c2cccc3cccc(c23)C1=O , growth inhibition: -3

Recorded result, O=C1Oc2ccccc2C(=O)/C1=C/N1C(=O)N/C(=C\c2ccccc2Br)C1=O , growth inhibition: 5

----------
- experiment: NCI Yeast Anticancer Drug Screen. Data for the wt2 strain (AID 169);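 also: 0% = growth of vehicle-treated yeast cultures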
- experimental.conditions: S. cerevisiae wt2 strain growth inhibition; at 3.7 µM
The panel holds about 79,000 compounds, 15% with a hit somewhere; the sample as a whole holds those more often. Activity calls are given as the source filed them. Cut-off read from the data, not from the text of the source: active = growth inhibition above about 70%; inactive = the rest.
Reply using exactly one outcome from active, inactive

Recorded results for 8 molecules are shown here.
- molecule: "O=NC1c2cccc3cccc(c23)C1N=O (stereo not given)"
  classification: "inactive"
- molecule: "CCCCCCCSCC1C(=O)C23C(O)C1CCC2C12COC3(O)C(O)C1C(C)(C)CCC2O (stereo not given)"
  classification: "inactive"
- molecule: "CCCCCCCCCCCCCCN"
  classification: "inactive"
- molecule: "O=Cc1ccccc1C=O"
  classification: "inactive"
- molecule: "CCOC(=O)/C(=C\\c1cccc(C)c1)C(C)=O"
  classification: "inactive"
- molecule: "CC(C)NCCCNc1c2ccccc2nc2cccc([N+](=O)[O-])c12"
  classification: "active"
- molecule: "CCCNCC(=O)O[C@]1(CC)C(=O)OCc2c1cc1n(c2=O)Cc2cc3ccccc3nc2-1"
  classification: "inactive"
- molecule: "CCC[CH2][Ge]([CH2]CCC)([CH2]CCC)[O]C(=O)C(O)c1ccccc1 (stereo not given)"
  classification: "inactive"

# input Tell me the assay call for CC1=CC(=C(c2ccc(N)c(C)c2)c2ccc(N)c(C)c2)C=CC1=N please.
# output inactive

# input Tell me the assay call for O=C1C(CCSc2ccccc2)C(=O)N(c2ccccc2)C1c1ccccc1 (stereo not given) please.
# output inactive

# input Tell me the assay call for O=S1(=O)CCC2=CC(C(F)(F)F)=CC(C(F)(F)F)=CN21 please.
# output inactive

# input Tell me the assay call for O=C(O)c1ccc2cc(Cl)c3ccccc3c2c1 please.
# output inactive

# input Tell me the assay call for NC(=O)NC1C(c2ccccc2)=C1c1ccccc1 please.
# output inactive

# input Tell me the assay call for COc1ccc(C(C)c2cc3c(cc2OCC(C)=O)OCO3)cc1 (stereo not given) please.
# output inactive

# input Tell me the assay call for CC12CCC(CC(=O)/C1=C(/Br)I)C2(C)C (stereo not given) please.
# output inactive

# input Tell me the assay call for c1c[nH]c(CN2CCN(Cc3ncc[nH]3)CC2)n1 please.
# output inactive

# input Tell me the assay call for CC(C)(N=Nc1ccc(Cl)cc1)[N+](=O)[O-] please.
# output inactive

# input Tell me the assay call for CCCC/C=C1\CCC(CN2CCCC2)C1=O (stereo not given) please.
# output inactive
